Source listed as patent US10487071B2.

Test system: Pseudoalteromonas lipolytica (TC8)
Assay: microbe, parasite or virus in culture
Conditions: Pseudoalteromonas lipolytica, read-out: LC50 (necessary concentration to kill 50% of the bacteria), TC8
Quick reference: CC50 of the listed items.
Give the quantity in µM, number only.

Example results:
[[record]]
compound = "CN(C)CCOc1ccc(CCn2cc(-c3ccc(-c4cn(CCc5ccc(OCCN(C)C)c(Br)c5)nn4)cc3)nn2)cc1Br [AS162]"
quantitative_result = 66.1

[[record]]
compound = "CN(C)CCCOc1c(Br)cc(CCn2cc(-c3ccc(-c4cn(CCc5cc(Br)c(OCCCN(C)C)c(Br)c5)nn4)cc3)nn2)cc1Br [SA34]"
quantitative_result = 174

[[record]]
compound = "CN(C)CCCOc1ccc(CCn2cc(-c3ccc(-c4cn(CCc5ccc(OCCCN(C)C)c(Br)c5)nn4)cc3)nn2)cc1Br [AS172]"
quantitative_result = 165

[[record]]
compound = "Oc1ccc(CCn2cc(-c3ccc(-c4cn(CCc5ccc(O)c(I)c5)nn4)cc3)nn2)cc1I [SA43]"
quantitative_result = 270


Let us examine a further case.
Q) Recorded CC50 of CN(C)CCOc1c(Br)cc(CCn2cc(-c3ccc(-c4cn(CCc5cc(Br)c(OCCN(C)C)c(Br)c5)nn4)cc3)nn2)cc1Br [SA33] , please.
A) 199

====

Test system: Pseudoalteromonas ulvae (TC14)
Test: Toxicity test, strain TC14
Assay type: cell-based
Text: Pseudoalteromonas ulvae (TC14) was isolated in June 2010 in the Military Harbor of Toulon (Mediterranean Sea, France) as described in F. Brian-Jaisson, A. Ortalo-Magné, L. Guentas-Dombrowsky, F. Armougom, Y. Blache, M. Molmeret, Microb. Ecol., 2014, 68, 94-110.
Quick reference: IS: LC50/EC50 (selectivity index), TC14 of the listed items.

[[record]]
compound = "CN(C)CCOc1ccc(CCn2cc(-c3ccc(-c4cn(CCc5ccc(OCCN(C)C)c(Br)c5)nn4)cc3)nn2)cc1Br [AS162]"
reported_endpoint = "IS: LC50/EC50 (selectivity index), TC14"
result = 265.7


Q) Recorded IS: LC50/EC50 (selectivity index), TC14 of CN(C)CCOc1c(Br)cc(CCn2cc(-c3ccc(-c4cn(CCc5cc(Br)c(OCCN(C)C)c(Br)c5)nn4)cc3)nn2)cc1Br [SA33] , please.
A) 12.45

Q) Likewise for CN(C)CCCOc1c(Br)cc(CCn2cc(-c3ccc(-c4cn(CCc5cc(Br)c(OCCCN(C)C)c(Br)c5)nn4)cc3)nn2)cc1Br [SA34] ?
A) 10.1

Q) Likewise for CN(C)CCCOc1ccc(CCn2cc(-c3ccc(-c4cn(CCc5ccc(OCCCN(C)C)c(Br)c5)nn4)cc3)nn2)cc1Br [AS172] ?
A) 576.1

Q) Likewise for Oc1ccc(CCn2cc(-c3ccc(-c4cn(CCc5ccc(O)c(I)c5)nn4)cc3)nn2)cc1I [SA43] ?
A) 11.4

====

Test: Gravimetry (weight loss), corrosion inhibition
Conditions: 0.5 ppm; mild steel in 1N HCl
reported-endpoint: IE % (%)
Give the quantity in %, number only.

Example results:
[[record]]
given_smiles = "CN(C)CCOc1ccc(CCn2cc(CNCc3cn(CCc4ccc(OCCN(C)C)c(Br)c4)nn3)nn2)cc1Br"
quantitative_result = 89.20

[[record]]
given_smiles = "CN(C)CCOc1ccc(CCn2cc(COCc3cn(CCc4ccc(OCCN(C)C)c(Br)c4)nn3)nn2)cc1Br"
quantitative_result = 94.54

[[record]]
given_smiles = "CN(C)CCOc1ccc(CCn2cc(-c3ccc(-c4cn(CCc5ccc(OCCN(C)C)c(Br)c5)nn4)cc3)nn2)cc1Br"
quantitative_result = 92.92


Let us examine a further case.
Q) Recorded IE % of CN(C)CCCOc1ccc(CCn2cc(COCc3cn(CCc4ccc(OCCCN(C)C)c(Br)c4)nn3)nn2)cc1Br , please.
A) 92.47
